Measured values drawn from the supplement of paper PMC10567573 for this set.

B1: ADAMTS4 (parent)
chain: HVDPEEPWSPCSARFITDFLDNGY

Variants of: B1
Experiment: protein stability index of a GFP-peptide fusion (GPS, HEK-293T) (PSI 1-6); higher = more stable;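 further: lentivirally expressed fusions sorted by FACS into six bins by GFP to DsRed ratio, PSI derived from sequencing read proportions per bin multiplied by bin number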
Details: c terminus: a fixed tail appended
Please go through the items and note down their protein stability index.
Lab note: record the figure alone, no unit after it.

In: Requested field: protein stability index. Item: P7H
Out: 1.57

In: T17H ?
Out: 2.05

In: E5A ?
Out: 2.37

In: P4W ?
Out: 1.69

In: N22Y ?
Out: 1.78

In: L20E ?
Out: 2.24

In: E5K ?
Out: 2.58

In: P4V ?
Out: 1.62

In: D18N ?
Out: 1.58

In: S9T ?
Out: 1.79

In: G23P ?
Out: 2.1

In: D18W ?
Out: 1.53

In: D21G ?
Out: 1.76

In: F15P ?
Out: 2.08

In: F19W ?
Out: 1.93

In: E5N ?
Out: 1.96

In: I16H ?
Out: 1.72

In: H1M ?
Out: 1.95

In: Y24F ?
Out: 2.17

In: T17L ?
Out: 2.39

In: D3N ?
Out: 2.21

In: E6L ?
Out: 2.05

In: E5D ?
Out: 1.9

In: C11A ?
Out: 2.41

In: P7I ?
Out: 1.61

In: P4F ?
Out: 1.63

In: S9F ?
Out: 1.93

In: N22I ?
Out: 2.52

In: P4N ?
Out: 1.95

In: L20K ?
Out: 1.93

In: E5V ?
Out: 1.92

In: V2D ?
Out: 3

In: F19G ?
Out: 2.06

In: R14S ?
Out: 2.02

In: I16S ?
Out: 1.98

In: V2Y ?
Out: 2.05

In: H1Q ?
Out: 2.31

In: G23F ?
Out: 2

In: H1I ?
Out: 2.1

In: G23Q ?
Out: 1.65

In: D3Y ?
Out: 1.11

In: S12L ?
Out: 2.12

In: Y24C ?
Out: 1.39
